- assayMethodText: Blood and brain concentrations (rats), tail vein injection
- Format: in vivo, Long-Evans Hooded rats
- particulars: male, Long-Evans Hooded, rat, in vivo, 3 mg/kg, 3 mg/kg tail vein injection, read-out: Brain Concentration at 1 hr
Provide the recorded concentration at 1 h for the entries that follow.
Answer with a number only, understood to be in µM.

**Query** What measured concentration at 1 h goes with [2H]C1([2H])NC([2H])([2H])C2(c3nc(C)no3)CC12 (stereo not drawn) [Compound 134] ?
**Result** 8.4

**Query** Please give the result for Cc1noc([C@]23CNC[C@H]2C3)n1 [Compound 106b] too.
**Result** 5.5

**Query** Please give the result for Cc1noc([C@@]23CNC[C@@H]2C3)n1 [Compound 106a] too.
**Result** 3.5
